Value source: PubChem BioAssay (NCI)

Tested on: NCI-H522 lung
Assay: NCI-60 one-dose screen, 48 h (100 = growth as untreated, 0 = no growth, -100 = all killed)
Conditions: 10 µM unless noted
About 83,000 compounds went through this panel and 20% of them were active in at least one assay; those are over-represented in the sample as a whole.
property.measured: growth (%)
One number for each entry, in %.

| compound | meas.value |
| --- | --- |
| O=C(c1nc2ccccc2[nH]1)C1C(c2ccc(Cl)cc2)C2CC3CCCC[C@H]3N2[C@@]12C(=O)Nc1cc(Cl)ccc12 (stereo not given in full) | 56.4 |

Parameters: items (list). Returns: growth for each item.
1. N#CC(C(=O)/C(=N/NC(=O)c1ccccc1O)C(C#N)c1ccccc1)c1ccccc1 (stereo not given)
2. O=C(/C=C/c1c(-c2ccc(Cl)cc2)nn(-c2ccccc2)c1C(F)(F)F)c1ccc(Cl)cc1
3. O=C(CSc1nc2ccccc2[nH]1)NCc1ccccc1

OUT:
1. 67.9
2. 78.9
3. 98.3

Just so you know, measured growth for O=C(Nc1cccc(C(=O)N2CCc3ccc(Cl)cc32)c1)c1ccco1 came out at 17.8

* * *

Give measured growth for each item. Keep answers brief.
Test system: HCT-116 colon
Test: NCI-60 one-dose screen, 48 h (100 = growth as untreated, 0 = no growth, -100 = all killed)
Settings: 10 µM unless noted
About 83,000 compounds went through this panel and 20% of them were active in at least one assay; those are over-represented in the sample as a whole. Activity calls are given as the source filed them. The calls were made as follows: active = growth percent below 10; inactive = the rest.

// known answers, use as guide
| compound | property.measured | meas.value |
| --- | --- | --- |
| Cc1cc2c(c(C)c1Cl)C(=O)/C(=C/c1ccc(O)c(O)c1)O2 | growth | 112% (inactive) |
| C=C(C)[C@@H]1CC[C@]2(C(=O)N3CCN(C)CC3)CC[C@]3(C)[C@H](CC[C@@H]4[C@@]5(C)CC[C@H](OCCC#N)C(C)(C)[C@@H]5CC[C@]43C)[C@@H]12 | growth | 44.4% (inactive) |
| N#Cc1c(NC(=O)NCc2ccccc2)sc2c1CCCC2 | growth | 12.2% (inactive) |
| CCCCCCCCCCCCCCCC[N+]1(C)CCN(SN2CC[N+](C)(CCCCCCCCCCCCCCCC)CC2)CC1 | growth | 31.6% (inactive) |

Parameters: items (list). Returns: growth for each item.
1. N#C/C(=C\c1ccccn1)c1nc2cc(Cl)ccc2s1
2. O=C(c1nc2ccccc2[nH]1)C1C(c2ccc(Cl)cc2)C2CC3CCCC[C@H]3N2[C@@]12C(=O)Nc1cc(Cl)ccc12 (some centres undefined)
3. NS(=O)(=O)c1ccc(CCN2C(=O)C=CC2=O)cc1
4. COc1c(Cl)c2c(c(OC)c1OC)-c1ccc(SC)c(=O)cc1[C@@H](NC(=O)OCC(F)(F)F)CC2
5. O=S(=O)(NCCNc1nccc(-c2c(-c3cccc(O)c3)nc3occn23)n1)c1ccccc1
6. COc1ccc(C/C(=C(\C)c2ccc(OCCN3CCCC3)cc2)c2ccc(OCCN3CCCC3)cc2)cc1
7. CN(CCN(C)c1ccc(C(=N)N)cc1)c1ccc(C(=N)N)cc1

OUT:
1: 55% (inactive); 2: 23.4% (inactive); 3: 99.7% (inactive); 4: 1.82% (active); 5: 53.8% (inactive); 6: 24.9% (inactive); 7: 104% (inactive)
